These data points were gathered from paper PMC11069345.

- tgt: ABCG2 (BCRP) (Homo sapiens, UniProt Q9UNQ0)
- Sequence (Q9UNQ0 1-655): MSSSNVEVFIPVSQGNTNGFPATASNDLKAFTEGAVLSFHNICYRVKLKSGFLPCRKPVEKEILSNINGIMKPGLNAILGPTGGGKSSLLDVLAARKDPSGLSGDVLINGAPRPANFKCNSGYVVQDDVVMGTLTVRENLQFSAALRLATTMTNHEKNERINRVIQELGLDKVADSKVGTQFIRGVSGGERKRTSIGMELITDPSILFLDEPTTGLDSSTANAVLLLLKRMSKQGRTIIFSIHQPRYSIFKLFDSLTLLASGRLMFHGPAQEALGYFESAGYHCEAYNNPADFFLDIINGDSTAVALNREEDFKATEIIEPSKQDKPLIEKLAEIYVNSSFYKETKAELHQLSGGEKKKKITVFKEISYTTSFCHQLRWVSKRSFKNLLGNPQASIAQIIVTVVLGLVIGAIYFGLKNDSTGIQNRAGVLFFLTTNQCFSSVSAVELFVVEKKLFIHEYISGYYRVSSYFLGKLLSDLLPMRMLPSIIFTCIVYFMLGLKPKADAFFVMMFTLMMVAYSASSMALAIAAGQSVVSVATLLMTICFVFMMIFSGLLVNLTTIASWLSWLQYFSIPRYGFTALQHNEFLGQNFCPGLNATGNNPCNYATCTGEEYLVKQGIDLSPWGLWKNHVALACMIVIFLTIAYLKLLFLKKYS
- experimental parameters: human, probe mitoxantrone (5 μM)
measured endpoint: inhibition at 30 min, 50 μM (%)
Provide only the numeric value, understood in %.

ABCG2 (BCRP) (Homo sapiens, UniProt Q9UNQ0) assay, compound C=CCc1ccc(OC)c(-c2cc(CC=C)cc(O)c2O)c1 [Compound 13] , recorded inhibition at 30 min, 50 μM = 19.5

* * *

- tgt: ABCC1 (MRP1) (Homo sapiens, UniProt P33527)
- Sequence (P33527 whole entry): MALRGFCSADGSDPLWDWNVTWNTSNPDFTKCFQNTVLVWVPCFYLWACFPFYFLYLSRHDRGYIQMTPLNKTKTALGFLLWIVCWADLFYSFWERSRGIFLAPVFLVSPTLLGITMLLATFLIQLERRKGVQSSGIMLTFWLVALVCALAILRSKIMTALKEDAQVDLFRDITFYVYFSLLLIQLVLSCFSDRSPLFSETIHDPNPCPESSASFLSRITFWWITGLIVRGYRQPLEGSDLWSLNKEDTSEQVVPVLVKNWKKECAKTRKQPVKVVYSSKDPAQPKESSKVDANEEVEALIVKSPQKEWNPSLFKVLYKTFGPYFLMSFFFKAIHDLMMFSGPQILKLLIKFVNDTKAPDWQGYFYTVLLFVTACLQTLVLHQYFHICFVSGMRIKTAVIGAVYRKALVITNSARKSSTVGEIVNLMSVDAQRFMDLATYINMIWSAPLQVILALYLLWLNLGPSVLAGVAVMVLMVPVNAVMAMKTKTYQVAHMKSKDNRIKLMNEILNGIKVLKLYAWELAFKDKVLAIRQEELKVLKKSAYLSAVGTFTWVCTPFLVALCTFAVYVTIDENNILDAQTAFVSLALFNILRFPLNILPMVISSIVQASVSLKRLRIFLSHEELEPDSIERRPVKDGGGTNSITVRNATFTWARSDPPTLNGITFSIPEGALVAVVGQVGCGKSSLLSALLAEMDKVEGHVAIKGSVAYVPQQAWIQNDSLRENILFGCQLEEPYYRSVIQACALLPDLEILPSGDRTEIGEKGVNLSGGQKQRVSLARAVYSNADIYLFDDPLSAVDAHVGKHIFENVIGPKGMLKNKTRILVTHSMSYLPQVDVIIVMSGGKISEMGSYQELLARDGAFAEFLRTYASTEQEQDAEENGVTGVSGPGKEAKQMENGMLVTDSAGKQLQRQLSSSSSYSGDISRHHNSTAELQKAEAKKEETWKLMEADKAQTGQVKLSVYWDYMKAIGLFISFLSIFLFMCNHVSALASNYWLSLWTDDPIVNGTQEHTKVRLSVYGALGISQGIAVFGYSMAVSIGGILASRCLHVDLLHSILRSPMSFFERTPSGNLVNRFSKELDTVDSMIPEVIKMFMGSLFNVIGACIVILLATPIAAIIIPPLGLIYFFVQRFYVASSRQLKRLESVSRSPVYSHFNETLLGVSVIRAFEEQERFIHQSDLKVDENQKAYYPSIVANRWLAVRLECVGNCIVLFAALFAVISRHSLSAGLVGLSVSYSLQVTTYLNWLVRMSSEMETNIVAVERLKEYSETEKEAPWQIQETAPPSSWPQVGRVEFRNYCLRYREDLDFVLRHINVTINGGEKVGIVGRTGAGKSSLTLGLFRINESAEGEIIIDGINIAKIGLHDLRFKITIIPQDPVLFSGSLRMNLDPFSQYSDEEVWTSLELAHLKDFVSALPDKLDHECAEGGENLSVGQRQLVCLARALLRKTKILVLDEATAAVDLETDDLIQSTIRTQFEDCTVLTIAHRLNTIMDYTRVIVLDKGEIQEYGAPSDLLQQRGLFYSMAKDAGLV
- test: Transport inhibition assay: calcein-AM in BHK21-ABCC1 cells, flow cytometry
- experimental parameters: probe calcein-AM (0.15 μM)
measured endpoint: inhibition at 30 min, 50 μM (%)
Provide only the numeric value, understood in %.

ABCC1 (MRP1) (Homo sapiens, UniProt P33527) assay, compound C=CCc1ccc(OC)c(-c2cc(CC=C)cc(O)c2O)c1 , recorded inhibition at 30 min, 50 μM = 4.7

* * *

- tgt: ABCG2 (BCRP) (Homo sapiens, UniProt Q9UNQ0)
- Sequence (Q9UNQ0 1-655): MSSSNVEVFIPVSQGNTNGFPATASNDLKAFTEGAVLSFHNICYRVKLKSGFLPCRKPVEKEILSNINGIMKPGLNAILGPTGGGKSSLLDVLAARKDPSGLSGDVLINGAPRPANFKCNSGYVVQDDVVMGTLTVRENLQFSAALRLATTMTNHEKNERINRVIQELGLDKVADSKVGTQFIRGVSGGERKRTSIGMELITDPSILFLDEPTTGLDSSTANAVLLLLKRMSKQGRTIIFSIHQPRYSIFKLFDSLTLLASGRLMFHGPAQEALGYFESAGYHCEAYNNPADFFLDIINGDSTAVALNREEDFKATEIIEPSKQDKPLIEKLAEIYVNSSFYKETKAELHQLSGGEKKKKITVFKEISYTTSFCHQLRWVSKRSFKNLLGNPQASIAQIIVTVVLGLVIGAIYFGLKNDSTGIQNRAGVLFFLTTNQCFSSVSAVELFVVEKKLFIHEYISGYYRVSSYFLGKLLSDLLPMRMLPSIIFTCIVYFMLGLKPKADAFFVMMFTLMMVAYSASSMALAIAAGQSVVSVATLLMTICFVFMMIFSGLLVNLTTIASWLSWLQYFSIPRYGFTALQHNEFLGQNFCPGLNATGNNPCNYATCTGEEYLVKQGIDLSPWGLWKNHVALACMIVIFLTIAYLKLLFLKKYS
- experimental parameters: human, probe mitoxantrone (5 μM)
measured endpoint: inhibition at 30 min, 10 μM (%)
Provide only the numeric value, understood in %.

# inhibition at 30 min, 10 μM of C=CCc1ccc(OC)c(-c2cc(CC=C)cc(O)c2O)c1 = 4
